# assay_system: human recombinant 15-PGDH (Homo sapiens)
# Sequence (P15428 1-266): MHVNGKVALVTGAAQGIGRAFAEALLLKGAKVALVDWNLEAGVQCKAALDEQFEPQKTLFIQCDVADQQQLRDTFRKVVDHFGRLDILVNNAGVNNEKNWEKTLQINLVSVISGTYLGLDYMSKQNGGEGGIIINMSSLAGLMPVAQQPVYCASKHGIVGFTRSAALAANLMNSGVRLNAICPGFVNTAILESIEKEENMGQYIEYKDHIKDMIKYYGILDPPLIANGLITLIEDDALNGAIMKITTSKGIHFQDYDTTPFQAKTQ
# method_notes: Recombinant 15-PGDH enzymatic inhibition assay (PGDH-Lumi, NADH signal)
# details: recombinant 15-PGDH; 15 min pre-incubation, 60 min reaction with PGE2 and NAD+, NADH signal
measurement_label: pIC50
pIC50 is defined as minus the log10 of a concentration measured in mol/L.

Which measured pIC50 value corresponds to Cn1cnc2cc(-c3ccc4cc(C5(O)CC(F)(F)C5)sc4n3)cnc21 [Compound C33] ? 8.59

Which measured pIC50 value corresponds to Cn1nnc2cc(-c3ccc4cc([C@]5(O)C[C@@](C)(C#N)C5)sc4n3)cnc21 (single isomer, unassigned) [Compound C104C] ? 8.41

Which measured pIC50 value corresponds to [2H][C@@](O)(c1cc2ccc(-c3cnc4nn(C)cc4c3)nc2s1)C1CC(F)(F)C1 (single isomer, unassigned) [Compound B79S] ? 9.15

Which measured pIC50 value corresponds to CN1CCCC(O)(c2cc3ccc(-c4cnc5nn(C)cc5c4)nc3s2)C1 (stereo not shown) [Compound C13] ? 6.12

Which measured pIC50 value corresponds to Cc1c([C@H](O)C2CCOCC2)sc2nc(-c3cnc4nn(C)cc4c3)ccc12 (single isomer, unassigned) [Compound B90R] ? 9.02

Which measured pIC50 value corresponds to O[C@@H](c1cc2ccc(-c3ccc4nccnc4c3)nc2s1)C1CC(F)(F)C1 (single isomer, unassigned) [Compound B52R] ? 9.54

Which measured pIC50 value corresponds to CO[C@@H]1CC[C@]1(O)c1cc2ccc(-c3cnc4nn(C)cc4c3)nc2s1 (single isomer, unassigned) [Compound C70RR] ? 6.39

----------
# assay_system: 15-PGDH in A549 cells (Homo sapiens)
# Construct: endogenous in cells
# method_notes: A549 cellular 15-PGDH assay (PGE2 accumulation, HTRF)
# details: interleukin-stimulated, inhibitor 24 hrs, PGE2 by competitive HTRF, read-out: A549 Cell Assay IC50
Consider the following molecules; for each one, report its IC50.
Answer with a number only, understood to be in nM.

Which measured IC50 value corresponds to Cn1cc2cc(-c3ccc4ccc([C@]5(O)C[C@@H](C(F)F)C5)cc4n3)cnc2n1 [Compound D5C] ? 253

Which measured IC50 value corresponds to Cn1cc2cc(-c3ccc4cc([C@H](O)C5COC5)sc4n3)cnc2n1 (single isomer, unassigned) [Compound B28R] ? 0.16

Which measured IC50 value corresponds to O[C@@H](c1cc2ccc(-c3cncnc3)nc2s1)C1CC(F)(F)C1 (single isomer, unassigned) [Compound B57R] ? 0.657

Which measured IC50 value corresponds to Cn1cc2cc(-c3ccc4ccc([C@H](O)C5CCOCC5)cc4n3)cnc2n1 (single isomer, unassigned) [Compound D4R] ? 187

Which measured IC50 value corresponds to CO[C@H]1C[C@](O)(c2sc3nc(-c4cnc5nn(C)cc5c4)ccc3c2Cl)C1 [Compound C69C] ? 0.722

Which measured IC50 value corresponds to Cn1cc2cc(-c3ccc4sc([C@H](O)C5CC(F)(F)C5)nc4n3)cnc2n1 (single isomer, unassigned) [Compound B74R] ? 0.494

Which measured IC50 value corresponds to Cn1cc2cc(-c3ccc4cc(C5(O)CC6(CCC6)C5)sc4n3)cnc2n1 [Compound C25] ? 0.14

----------
# assay_system: human recombinant 15-PGDH (Homo sapiens)
# method_notes: Recombinant 15-PGDH enzymatic inhibition assay (PGDH-Lumi, NADH signal)
# details: recombinant 15-PGDH; 15 min pre-incubation, 60 min reaction with PGE2 and NAD+, NADH signal
# Method: These assays measured 15-PGDH enzymatic activity by quantifying the amount of NADH produced during a 60-minute reaction initiated by the addition of PGE2 and NAD+. Under the conditions of these experiments, the increase of NADH signal upon oxidation of PGE2 and reduction of NAD+ was linearly proportional to 15-PGDH enzymatic activity. […] After 60 minutes at room temperature, the reaction was quenched and NADH signal was measured using a microtiter plate reader. […]
measurement_label: pIC50
pIC50 is defined as minus the log10 of a concentration measured in mol/L.

Identify the measured pIC50 of Cn1cc2cc(-c3ccc4cc(C5(O)CCC5)sc4n3)cnc2n1 [Compound C21] for human recombinant 15-PGDH (Homo sapiens). 8.75

Identify the measured pIC50 of Cn1cc2cc(-c3ccc4cc([C@@H](O)C56CC(C5)C6)sc4n3)cnc2n1 (single isomer, unassigned) [Compound B87S] for human recombinant 15-PGDH (Homo sapiens). 7.54

Identify the measured pIC50 of CC(C)n1cc2cc(-c3ccc4cc([C@@H](O)C5CC(F)(F)C5)sc4n3)ccc2n1 (single isomer, unassigned) [Compound B56S] for human recombinant 15-PGDH (Homo sapiens). 7.74

Identify the measured pIC50 of Cn1cc2cc(-c3ccc4nc([C@]5(O)C[C@](C)(C#N)C5)sc4n3)cnc2n1 (single isomer, unassigned) [Compound C91T] for human recombinant 15-PGDH (Homo sapiens). 8.67

----------
# assay_system: human recombinant 15-PGDH (Homo sapiens)
# method_notes: Recombinant 15-PGDH enzymatic inhibition assay (PGDH-Lumi, NADH signal)
# details: recombinant 15-PGDH; 15 min pre-incubation, 60 min reaction with PGE2 and NAD+, NADH signal
Consider the following compounds; for each one, report its pIC50.
pIC50 is defined as minus the log10 of a concentration measured in mol/L.

Identify the measured pIC50 of Cn1cc2cc(-c3ncc4cc([C@]5(O)C[C@@H](C6CC6)C5)sc4n3)cnc2n1 [Compound C99C] for human recombinant 15-PGDH (Homo sapiens). 9.54

Identify the measured pIC50 of Cn1nnc2cc(-c3ccc4cc([C@@H](O)C5CCOCC5)sc4n3)cnc21 (single isomer, unassigned) [Compound B41S] for human recombinant 15-PGDH (Homo sapiens). 6.82

Identify the measured pIC50 of COCC[C@@H](O)c1cc2ccc(-c3cnc4nn(C)cc4c3)nc2s1 (single isomer, unassigned) [Compound B29R] for human recombinant 15-PGDH (Homo sapiens). 9.68

Identify the measured pIC50 of CO[C@]1(C(F)(F)F)C[C@](O)(c2cc3cnc(-c4cnc5nn(C)cc5c4)nc3s2)C1 (single isomer, unassigned) [Compound C113T] for human recombinant 15-PGDH (Homo sapiens). 9.37

----------
# assay_system: 15-PGDH in A549 cells (Homo sapiens, UniProt P15428)
# Construct: endogenous in cells
# method_notes: A549 cellular 15-PGDH assay (PGE2 accumulation, HTRF)
# details: interleukin-stimulated, inhibitor 24 hrs, PGE2 by competitive HTRF, read-out: A549 Cell Assay IC50
measurement_label: log10 of IC50 (log10 of the value in nM)
All values: log10 IC50 [nM].

Which measured log10 of IC50 value corresponds to Cn1cc2cc(-c3cnc4cc([C@@H](O)C5CC(F)(F)C5)sc4n3)cnc2n1 [Compound B92S] ? 0.54

Which measured log10 of IC50 value corresponds to Cn1cc2cc(-c3ccc4cc([C@@H](O)C56CC(C(F)(F)F)(C5)C6)sc4n3)cnc2n1 (single isomer, unassigned) [Compound B91S] ? 0.37

Which measured log10 of IC50 value corresponds to [2H]C(O)(c1cc2ccc(-c3cnc4nn(C)cc4c3)nc2s1)C1CCOCC1 (stereo not shown) ? -0.08

Which measured log10 of IC50 value corresponds to CO[C@]1(C)C[C@](O)(c2cc3cnc(-c4cnc5nn(C)cc5c4)nc3s2)C1 (single isomer, unassigned) [Compound C118T] ? 0.44

Which measured log10 of IC50 value corresponds to Nc1ncc(-c2ccc3cc(C4(O)CC(F)(F)C4)sc3n2)cn1 ? 0.57

Which measured log10 of IC50 value corresponds to CO[C@]1(C)C[C@](O)(c2cc3cnc(-c4cnc5c(c4)nnn5C)nc3s2)C1 (single isomer, unassigned) [Compound C121T] ? 1.13

Which measured log10 of IC50 value corresponds to Cn1cc2cc(-c3ccc4sc([C@]5(O)C[C@@](C)(C#N)C5)cc4n3)cnc2n1 (single isomer, unassigned) [Compound C106C] ? 1.47

----------
Consider the following compounds; for each one, report its pIC50.
# assay_system: human recombinant 15-PGDH (Homo sapiens, UniProt P15428)
# Sequence (P15428 1-266): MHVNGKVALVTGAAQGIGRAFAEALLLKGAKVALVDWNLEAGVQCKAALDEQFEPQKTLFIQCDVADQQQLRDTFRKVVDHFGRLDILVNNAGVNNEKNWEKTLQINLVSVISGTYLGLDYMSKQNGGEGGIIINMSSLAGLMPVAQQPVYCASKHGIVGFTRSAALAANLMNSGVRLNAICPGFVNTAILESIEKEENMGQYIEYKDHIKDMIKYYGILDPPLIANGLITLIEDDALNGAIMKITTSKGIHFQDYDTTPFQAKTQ
# method_notes: Recombinant 15-PGDH enzymatic inhibition assay (PGDH-Lumi, NADH signal)
# details: recombinant 15-PGDH; 15 min pre-incubation, 60 min reaction with PGE2 and NAD+, NADH signal
pIC50 is defined as minus the log10 of a concentration measured in mol/L.

Which measured pIC50 value corresponds to Cn1cc2cc(-c3ccc4cc([C@@H](O)[C@H]5CC5(F)F)sc4n3)cnc2n1 (single isomer, unassigned) [Compound B85SR] ? 8.91

Which measured pIC50 value corresponds to Cc1nc2cc(-c3ccc4cc([C@H](O)C5CC(F)(F)C5)sc4n3)ccc2o1 (single isomer, unassigned) [Compound B46R] ? 9.56

Which measured pIC50 value corresponds to Cn1ncc2cc(-c3ccc4cc([C@@H](O)C5CCOCC5)sc4n3)ccc21 (single isomer, unassigned) [Compound B34S] ? 5.33

Which measured pIC50 value corresponds to CO[C@H]1C[C@@H]([C@@H](O)c2cc3ccc(-c4cnc5nn(C)cc5c4)nc3s2)C1 (single isomer, unassigned) [Compound B88RC] ? 9.30

Which measured pIC50 value corresponds to O[C@]1(c2cc3cnc(-c4ccnnc4)nc3s2)C[C@H](C(F)(F)F)C1 [Compound C126C] ? 7.94

Which measured pIC50 value corresponds to C[C@H]1CC[C@]1(O)c1cc2ccc(-c3cnc4nn(C)cc4c3)nc2s1 (single isomer, unassigned) [Compound C64RS] ? 7.68
